Read-out: Apoptosis regulator Bcl-2 (Homo sapiens)
test: LTEA_HepaRG_BCL2: Life Technologies and Expression Analysis (LTEA) Assay for Bcl-2 gene using HepaRG (AID 2283475);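 also: BCL2 transcript by TaqMan qRT-PCR normalised to ACTB GAPDH and POLR2A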
experimental_setup: mRNA level, 48 h; actives raise or lower the signal
The source made the active and inactive calls. The calls were made as follows: active = hit-call score of the fitted dose curve at least 0.9, where 1 is the maximum; inactive = score below 0.9.
assay_endpoint: AC50

Observe how each entry below is paired with its result.
NC(N)=O; inactive
CC(=O)c1ccccc1; inactive
CCCCCCCC1CCC(=O)O1 (configuration not stated); inactive
CNC(C)=O; inactive
c1ccc2cc3ccccc3cc2c1; inactive

Please examine the following record next.
For Cn1cc[nH]c1=S the compound record lists AC50 as inactive

* * *

Read-out: Alkaline Phosphatase, Placental (ALPP) gene, ALPP (gene 250)
test: LTEA_HepaRG_ALPP: Life Technologies and Expression Analysis (LTEA) Assay for Alkaline Phosphatase, Placental (ALPP) gene using HepaRG (AID 2283468)
experimental_setup: mRNA level, 48 h; actives raise or lower the signal
Calls of active or inactive are those of the source. The calls were made as follows: active = hit-call score of the fitted dose curve at least 0.9, where 1 is the maximum; inactive = score below 0.9.
Thanks in advance; please answer with one of these: active, inactive

## Task For this compound, state the assay outcome: COc1cc2c(c(OC)c1OC)-c1ccc(OC)c(=O)cc1[C@@H](NC(C)=O)CC2
## Result active

## Task For this compound, state the assay outcome: C=CCc1cc(S(=O)(=O)c2ccc(O)c(CC=C)c2)ccc1O
## Result active

## Task For this compound, state the assay outcome: NC(N)=O
## Result inactive

## Task For this compound, state the assay outcome: Cc1nccn1-c1ccc(Sc2cccc(C3(C(N)=O)CCOCC3)c2)cc1
## Result active

## Task For this compound, state the assay outcome: c1ccc2ncccc2c1
## Result inactive

## Task For this compound, state the assay outcome: Cc1ccc(S(=O)(=O)NC(=O)NN2CCCCCC2)cc1
## Result active

## Task For this compound, state the assay outcome: c1ccc2cc3ccccc3cc2c1
## Result inactive

## Task For this compound, state the assay outcome: CCCc1ccccc1
## Result inactive
